# SYSTEM_TESTED: T1, HLA-DR3 (DRB1*0301) (human)
# T1 chain 1: not shown
# T1 chain 2: not shown
MEASUREMENT_LABEL: pIC50
Give bare numbers, as −log10 of the molar value.

# input Tell me the measured pIC50 of KCNLYADSAWENVKN (modifications not checked) [35.0172 … (Pf SSP2 211)] , please.
# output 6.07
